Origin of values: ChEMBL document CHEMBL3988442

System: Wolbachia pipientis
experiment notes: Anti-Wolbachia Cell-Based Screen
Assay type: functional
Parameters: scale not given: in the data most compounds retested in dose-response had high values
stated conditions: 5 µM
Screen size: about 48,000 compounds; about 13,000 (27%) showed an effect of 50% or more. This is one part of the list.

# compound, study target, Percent Effect, %
measured = [
    ("CCC(C)NC(=O)Cn1ccc2sc(C)cc2c1=O (stereo unspecified)", "Wolbachia pipientis", 106.2),
    ("COc1cc(NC(=O)Cn2ccc3sc(C)cc3c2=O)cc(OC)c1", "Wolbachia pipientis", -10.49),
    ("Oc1ccc(-c2c(-c3ccccc3)ncn2C[C@H]2CCCN2)cc1", "Wolbachia pipientis", -6.352),
    ("CCC(C)CS(=O)(=O)NC(=O)C1CCC1 (stereo unspecified)", "Wolbachia pipientis", 4.874),
    ("COCCCNC(=O)CN(C)C(=O)c1cc(C)sc1C", "Wolbachia pipientis", -3.68),
    ("CCc1nc(CSc2nnc(N)n2C2CC2)no1", "Wolbachia pipientis", 6.66),
    ("Cc1cc(F)ccc1C(=O)N1C[C@@H]2COC[C@]2(CN(C)C)C1.O=C(O)C(F)(F)F", "Wolbachia pipientis", -5.19),
    ("CN(C)C(=O)CNC(=O)c1nc2c(s1)CCCN2Cc1ccccc1", "Wolbachia pipientis", -13.23),
    ("NC(=O)NC(=O)Cn1ccc2sccc2c1=O", "Wolbachia pipientis", -7.139),
    ("COCCN1CCCc2sc(C(=O)N3CCCN(C)CC3)nc21.O=C(O)C(F)(F)F", "Wolbachia pipientis", -1.049),
    ("NC(=O)C1CCCN(C(=O)c2cnc3c(cnn3C3CCCC3)c2)C1 (stereo unspecified)", "Wolbachia pipientis", -9.879),
]

----------
System: Wolbachia pipientis
experiment notes: Anti-Wolbachia Cell-Based Screen
Format: functional
Set-up: scale not given: in the data most compounds retested in dose-response had high values
stated conditions: 5 µM
Screen size: about 48,000 compounds; about 13,000 (27%) showed an effect of 50% or more. The list shows a part of the results.
The label label 1 is reserved for Percent Effect strictly under 20%; label 0 covers values equal to or above it.

# compound, assigned category
rows = [
    ("CCc1nc(C2CCCN2C(=O)c2ccc(=O)n(CC)n2)no1 (stereo not given)", "label 1"),
    ("CN(C)c1ncccc1CNS(=O)(=O)c1cc(F)ccc1F", "label 0"),
    ("CCc1cc(O)nc(C2CCCN2C(=O)COC)n1 (stereo not given)", "label 0"),
    ("N#Cc1ccc(N2CCCN(CC(=O)N3CCNC(=O)C3)CC2)cc1", "label 1"),
    ("CCc1nc(CN2CCN(C(=O)c3cnccn3)CC2)cs1", "label 1"),
    ("O=C(c1cnccn1)N1CCC(Oc2ncccc2Cl)CC1", "label 0"),
    ("CNC(=O)[C@@H]1C[C@@H](NC(=O)CCCc2cccs2)CN1C1CCOCC1", "label 1"),
    ("Nc1nc(C2CCN(C(=O)c3cnccn3)CC2)cs1", "label 0"),
    ("O=C(NC1CC1)c1cnc2n1CCCC2", "label 1"),
    ("O=C(c1ncccn1)N1C[C@@H]2COC[C@]2(COCc2cccnc2)C1", "label 1"),
    ("CN(C)c1ncccc1CNS(=O)(=O)c1ccc(F)cc1F", "label 0"),
    ("CN(C)C(=O)c1cc2ncc(C(=O)NC3CC3)cc2n1C", "label 0"),
    ("COC(=O)c1ccc(S(=O)(=O)NCc2cccnc2N(C)C)cc1", "label 1"),
    ("COc1ccc(S(=O)(=O)NCc2cccnc2N(C)C)cc1F", "label 1"),
    ("CN(C)C(CNS(=O)(=O)c1ccc(F)cc1F)c1cccn1C (stereo not given)", "label 1"),
    ("CCc1cc(O)nc(C2CCCN2C(=O)c2cc(C)no2)n1 (stereo not given)", "label 1"),
    ("CCc1nc(C2CCCN2C(=O)c2nccnc2N)no1 (stereo not given)", "label 1"),
    ("Cc1cc(S(=O)(=O)N2CCCc3cc(F)cc(F)c32)sc1C(=O)O", "label 1"),
    ("CN(C)c1nc(NCc2cccnc2N)ncc1F", "label 0"),
    ("CCn1cc2c(n1)C(COCC1CC1)CN(C(=O)c1cc(C)on1)C2 (stereo not given)", "label 1"),
    ("CN(C)c1ncccc1CNS(=O)(=O)c1ccccc1Cl", "label 0"),
    ("CC(C)N(C)S(=O)(=O)NCc1cccnc1N(C)C", "label 0"),
    ("CN(C)C(=O)c1cccc(C[S+]([O-])CC(=O)NC2CCCC2)c1 (stereo not given)", "label 1"),
    ("CCc1cc(O)nc(C2CCCN2C(=O)c2cc(CC)on2)n1 (stereo not given)", "label 0"),
    ("CN(C)C(CNS(=O)(=O)c1cc(F)ccc1F)c1cccn1C (stereo not given)", "label 1"),
]
